Reference source: patent US10124004B2

Target: CDK4/cyclin D3 (Homo sapiens)
Construct: purchased Carna Biosciences, Inc. QS S Assist CDK4/Cyclin D3_FP Kit
Sequence (P11802 whole entry): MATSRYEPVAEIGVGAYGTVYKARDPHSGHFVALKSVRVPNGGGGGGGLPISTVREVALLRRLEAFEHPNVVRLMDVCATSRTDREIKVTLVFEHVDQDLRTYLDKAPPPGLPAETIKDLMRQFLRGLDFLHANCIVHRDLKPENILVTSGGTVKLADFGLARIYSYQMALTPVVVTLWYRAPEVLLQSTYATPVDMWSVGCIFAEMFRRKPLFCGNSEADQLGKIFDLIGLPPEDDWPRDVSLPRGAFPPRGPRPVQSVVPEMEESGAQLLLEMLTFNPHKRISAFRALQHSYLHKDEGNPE
Sequence (P30281 whole entry partner): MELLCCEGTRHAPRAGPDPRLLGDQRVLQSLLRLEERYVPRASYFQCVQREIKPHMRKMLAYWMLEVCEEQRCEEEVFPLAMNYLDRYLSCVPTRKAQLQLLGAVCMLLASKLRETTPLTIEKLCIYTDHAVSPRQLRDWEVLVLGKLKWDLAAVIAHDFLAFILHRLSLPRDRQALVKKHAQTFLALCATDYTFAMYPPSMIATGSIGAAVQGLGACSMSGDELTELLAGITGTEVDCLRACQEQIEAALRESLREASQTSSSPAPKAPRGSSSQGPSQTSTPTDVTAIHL
Assay: Human CDK4/cyclin D3 inhibitory activity (QS S Assist CDK4/Cyclin D3_FP Kit, IMAP fluorescence polarization)
Format: biochemical
Conditions: 50% inhibitory concentration against CDK4/cyclin D3, given as class symbol
endpoint.name: IC50

Worked examples, 6 compounds total:
                                   compound    test_value
0  CC(C)Nc1nc(C(C)O)cc2cnc(Nc3ccc(C4CNCCO4)cn3)nc12 (single isomer, unassigned) [Compound 736]       < 10 nM
1  COC[C@H](C)Nc1nc([C@@H](C)O)cc2cnc(Nc3ccc(N4CCC(O)CC4)nn3)nc12  10 to 100 nM
2  CNCCOc1ccc(Nc2ncc3cc([C@@H](C)O)nc(N[C@H]4CCCOC4)c3n2)nc1       < 10 nM
3  Cc1nc(Nc2ncc3cc([C@@H](C)O)nc(NCC(C)C)c3n2)ccc1N1CCNCC1       < 10 nM
4  CC(O)CN1CCN(c2ccc(Nc3ncc4cc([C@@H](C)O)nc(NC(C)C)c4n3)nn2)CC1 (stereo partly shown)       < 10 nM
5  CO[C@H](C)c1cc2cnc(Nc3ccc4c(n3)CCN(CCO)C4)nc2c(N[C@H]2CCCOC2)n1       < 10 nM

Consider now this further compound.
Query :: I'd like to know its IC50. The compound in question is CCC(O)c1cc2cnc(Nc3ccc(N4CCNCC4=O)cn3)nc2c(NC(C)C)n1 (stereo not shown) [Compound 1037]
Result :: 10 to 100 nM

----------
In this section we review reported pIC50 values for a set of molecules.
Molecular target: CDK2/cyclin A2 (Homo sapiens, UniProt P24941)
Construct: purchased Carna Biosciences, Inc. QS S Assist CDK2/Cyclin A2_FP Kit
Assay: Human CDK2/cyclin A2 inhibitory activity (QS S Assist CDK2/Cyclin A2_FP Kit, IMAP fluorescence polarization)
Format: biochemical
Conditions: 50% inhibitory concentration against CDK2/cyclin A2, given as class symbol
pIC50: −log10 of the molar value.

Worked examples, 5 molecules total:
In [3]: df
Out[3]:
                                   molecule    test_value
0  CC(C)Nc1nc([C@@H](C)O)cc2cnc(Nc3ccc(N4CCN(CC(=O)O)CC4C(F)(F)F)cn3)nc12 (stereo partly drawn) [Compound 892]        ≤ 7.00
1  CC(C)Nc1nc([C@@H](C)O)cc2cnc(Nc3ccc(N4CCN(C(=O)OC(C)C)CC4)nn3)nc12 [Compound 767]        ≤ 7.00
2  CCCNc1nc(C(C)=O)cc2cnc(Nc3ccc(N4CCNCC4)cn3)nc12 [Compound 1028]        ≤ 7.00
3  CO[C@H](C)c1cc2cnc(Nc3ccc(N4CCNCC4)nn3)nc2c(NC2CCC(C)(C)OC2)n1 (stereo partly drawn) [Compound 727]        ≤ 7.00
4  CC(C)Nc1nc([C@@H](C)O)cc2cnc(Nc3ccc(C(=O)N4CCN(CCO)CC4)cn3)nc12 [Compound 1165]  7.00 to 8.00

Query :: I'd like to know its pIC50. The molecule in question is C[C@@H](O)c1cc2cnc(Nc3ccc(CN4CCC[C@H](O)C4)cn3)nc2c(N[C@H]2CC[C@H](O)CC2)n1 [Compound 1190]
Result :: ≤ 7.00

Query :: I'd like to know its pIC50. The molecule in question is Cc1nc(Nc2ncc3cc(C4CCOC4)nc(NC(C)C)c3n2)ccc1N1CCNCC1=O (single isomer, unassigned) [Compound 876]
Result :: ≤ 7.00
